target.or.system: DNA topoisomerase 2-alpha (Homo sapiens)
Sequence (P11388 whole entry): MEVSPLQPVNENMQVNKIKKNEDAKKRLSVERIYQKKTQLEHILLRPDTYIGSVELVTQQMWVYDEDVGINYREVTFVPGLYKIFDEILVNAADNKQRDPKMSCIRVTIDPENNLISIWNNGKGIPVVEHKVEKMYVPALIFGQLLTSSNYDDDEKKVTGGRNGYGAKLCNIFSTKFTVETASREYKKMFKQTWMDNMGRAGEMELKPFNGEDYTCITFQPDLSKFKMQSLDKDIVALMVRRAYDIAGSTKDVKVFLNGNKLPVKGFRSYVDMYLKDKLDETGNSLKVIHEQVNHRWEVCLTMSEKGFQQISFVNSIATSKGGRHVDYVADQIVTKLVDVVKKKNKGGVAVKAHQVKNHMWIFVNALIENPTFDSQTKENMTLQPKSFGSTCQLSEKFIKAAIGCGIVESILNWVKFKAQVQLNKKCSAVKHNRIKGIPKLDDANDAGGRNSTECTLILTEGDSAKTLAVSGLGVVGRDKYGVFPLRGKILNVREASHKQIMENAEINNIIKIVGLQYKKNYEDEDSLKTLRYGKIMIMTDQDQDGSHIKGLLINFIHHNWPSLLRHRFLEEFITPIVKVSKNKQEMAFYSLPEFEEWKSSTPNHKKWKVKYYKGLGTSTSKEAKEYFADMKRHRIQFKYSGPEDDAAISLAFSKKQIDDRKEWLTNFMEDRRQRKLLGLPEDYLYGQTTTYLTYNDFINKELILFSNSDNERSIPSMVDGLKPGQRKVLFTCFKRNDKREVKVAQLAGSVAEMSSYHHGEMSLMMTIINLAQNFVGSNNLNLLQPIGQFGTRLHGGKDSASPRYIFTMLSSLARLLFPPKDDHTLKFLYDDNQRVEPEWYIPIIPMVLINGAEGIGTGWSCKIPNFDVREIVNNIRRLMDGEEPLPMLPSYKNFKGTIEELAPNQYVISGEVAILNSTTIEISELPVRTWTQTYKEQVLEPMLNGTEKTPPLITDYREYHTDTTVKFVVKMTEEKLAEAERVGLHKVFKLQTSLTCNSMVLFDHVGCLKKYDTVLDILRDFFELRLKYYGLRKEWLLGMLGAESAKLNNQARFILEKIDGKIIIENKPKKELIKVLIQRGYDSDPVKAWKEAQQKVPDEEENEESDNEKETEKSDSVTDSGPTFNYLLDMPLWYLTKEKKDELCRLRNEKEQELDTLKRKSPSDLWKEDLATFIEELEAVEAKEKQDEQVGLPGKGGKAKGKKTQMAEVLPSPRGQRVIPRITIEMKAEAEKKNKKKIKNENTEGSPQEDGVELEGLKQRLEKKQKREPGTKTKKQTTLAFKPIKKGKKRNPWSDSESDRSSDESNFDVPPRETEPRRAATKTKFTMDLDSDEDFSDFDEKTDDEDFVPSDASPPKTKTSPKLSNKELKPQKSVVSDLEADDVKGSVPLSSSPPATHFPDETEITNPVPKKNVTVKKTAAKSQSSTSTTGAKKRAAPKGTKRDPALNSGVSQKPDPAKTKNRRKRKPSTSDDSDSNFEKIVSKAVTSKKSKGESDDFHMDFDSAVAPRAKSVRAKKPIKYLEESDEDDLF
protocol.text: Inhibition of human topoisomerase 2alpha-mediated relaxation of supercoiled pBR322 DNA
quantity.name: IC50

[O-]c1cc2c3c(c1)c1cc4c(cc1c[n+]3CC2)OCO4
25.8 µM

###

Test system: HL-60
protocol.text: Cytotoxicity against human HL60 cells after 72 hrs by MTT assay
Type: functional, cell-based
test.settings: HL-60, 72 h
quantity.name: IC50

[O-]c1cc2c3c(c1)c1cc4c(cc1c[n+]3CC2)OCO4
1.4 µM
